Values were extracted from patent US9776962B2.

- test_system: human GPR40 (Homo sapiens, UniProt O14842)
- Construct: expressed in transfected cells
- Sequence (O14842 whole entry): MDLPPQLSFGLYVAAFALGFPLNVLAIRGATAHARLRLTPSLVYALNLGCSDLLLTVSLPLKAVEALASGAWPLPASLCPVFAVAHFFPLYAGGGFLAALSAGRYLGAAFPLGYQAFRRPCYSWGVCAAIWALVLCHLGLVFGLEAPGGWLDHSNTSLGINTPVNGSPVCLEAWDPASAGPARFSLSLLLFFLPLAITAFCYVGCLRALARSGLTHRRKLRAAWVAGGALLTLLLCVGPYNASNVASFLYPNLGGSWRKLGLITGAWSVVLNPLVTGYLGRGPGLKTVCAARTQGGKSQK
- protocol_notes: Evaluation of human GPR40 agonist activity with increase in intracellular Ca2+ concentration as an index (FLIPR)
- Format: cell-based
- recorded_conditions: test compound 1 μM; CHO(dhfr−) cells stably expressing human GPR40; 100% = 10 μM compound of Example 153, 0% = DMSO

| compound | measurement_unit | activation at 1 µM |
| --- | --- | --- |
| COc1ccc(C(=O)N(CC(C)(C)F)c2ccccn2)c(N2CCC(COc3cc(C(CC(=O)O)C4CC4)ccn3)CC2)c1 (stereo not shown) [Example 120] | % | 100 |
| COc1ccc(C(=O)N(CC(C)(C)C)c2cccc(C)n2)c(N2CCC(COc3cccc(C4(CC(=O)O)COC4)c3)CC2)c1 [Example 278] | % | 78 |
| COc1ccc(C(=O)N(CC(C)C)c2ccnc(OC)c2)c(N2CCC(COc3cc(C(CC(=O)O)C4CC4)ccn3)CC2)c1 (stereo not shown) [Example 127] | % | 94 |
| COc1cc(N2CCC(COc3cc(C(CC(=O)O)C4CC4)ccn3)CC2)c(C(=O)N(CC(F)(F)F)c2ccccn2)cn1 (stereo not shown) [Example 256] | % | 96 |
| COc1ccc(C(=O)N(CC(C)C)c2cccc(C#N)c2)c(N2CCC(COc3cc(C(CC(=O)O)C4CC4)ccn3)CC2)c1 (stereo not shown) [Example 132] | % | 99 |
| COc1ccc(C(=O)N(CC(C)C)c2ccc(OC)nc2)c(N2CCC(COc3cc(C(CC(=O)O)C4CC4)ccn3)CC2)c1 (stereo not shown) [Example 140] | % | 93 |
| COc1ccc(C(=O)N(CC(C)C)c2cccc(C)n2)c(N2CCC(COc3cc(C(CC(=O)O)C4CC4)ccn3)CC2)c1 (stereo not shown) [Example 122] | % | 101 |

====

Catalogue of molecules with associated activation at 1 µM
- test_system: human GPR40 (Homo sapiens, UniProt O14842)
- Construct: expressed in transfected cells
- protocol_notes: Evaluation of human GPR40 agonist activity with increase in intracellular Ca2+ concentration as an index (FLIPR)
- Type: cell-based
- recorded_conditions: test compound 1 μM; CHO(dhfr−) cells stably expressing human GPR40; 100% = 10 μM compound of Example 153, 0% = DMSO
quantity_kind: activation at 1 µM

| molecule | test_system | value |
| --- | --- | --- |
| Cc1cccc(N(CC(C)(C)C)C(=O)c2ccc(Br)cc2N2CCC(COc3cc(C(CC(=O)O)C4CC4)ccn3)CC2)n1 (stereo not shown) | human GPR40 (Homo sapiens, UniProt O14842) | 94% |
| COc1ccc(C(=O)N(CC(C)C)c2ncccc2C)c(N2CCC(COc3cc(C(CC(=O)O)C4CC4)ccn3)CC2)c1 (stereo not shown) | human GPR40 (Homo sapiens, UniProt O14842) | 84% |
| CCOC(CC(=O)O)c1ccnc(OCC2CCN(c3cc(OC)ccc3C(=O)N(CC(C)(C)C)c3cccc(C)n3)CC2)c1 (stereo not shown) | human GPR40 (Homo sapiens, UniProt O14842) | 95% |
| COc1ccc(C(=O)N(CC2CC2)c2cccc(C)n2)c(N2CCC(COc3cc(C(CC(=O)O)C4CC4)ccn3)CC2)c1 (stereo not shown) | human GPR40 (Homo sapiens, UniProt O14842) | 96% |
| COc1cc(N2CCC(COc3cc(C(CC(=O)O)C4CC4)ccn3)CC2)c(C(=O)N(CC2CC2)c2cc(C)cc(C)n2)cn1 (stereo not shown) | human GPR40 (Homo sapiens, UniProt O14842) | 99% |
| COc1cc(N2CCC(COc3cc(C(CC(=O)O)C4CC4)ccn3)CC2)c(C(=O)N(CC(C)(C)C)c2cccc(C)n2)cn1 (stereo not shown) | human GPR40 (Homo sapiens, UniProt O14842) | 103% |
| Cc1cccc(N(CC(C)(C)C)C(=O)c2ccc(S(C)(=O)=O)cc2N2CCC(COc3cc(C(CC(=O)O)C4CC4)ccn3)CC2)n1 (stereo not shown) | human GPR40 (Homo sapiens, UniProt O14842) | 52% |

====

- test_system: human GPR40 (Homo sapiens)
- Construct: expressed in transfected cells
- protocol_notes: Evaluation of human GPR40 agonist activity with increase in intracellular Ca2+ concentration as an index (FLIPR)
- Assay type: cell-based
- recorded_conditions: test compound 1 μM; CHO(dhfr−) cells stably expressing human GPR40; 100% = 10 μM compound of Example 153, 0% = DMSO
- Source text: Plasmid hGPR40/pAKKO-1.11H for mammalian cells expression, wherein cDNA fragment (SEQ ID NO: 1) encoding the full-length human GPR40 was incorporated into an expression vector pAKKO-1.11H (Biochimica et Biophysica Acta vol. 1219 pp. 251-259 (1994)), was transfected into CHO-dhfr(−) cells (ATCC, CRL-9096) by using Lipofectamine 2000 (Invitrogen:11668-019). […]
Catalogue of molecules with associated activation at 1 µM
quantity_kind: activation at 1 µM

| molecule | value |
| --- | --- |
| COc1ccc(C(=O)N(CC2CC2)c2nccc(C(F)(F)F)n2)c(N2CCC(COc3cc(C(CC(=O)O)C4CC4)ccn3)CC2)c1 (stereo not drawn) | 98% |
| COc1ccc(C(=O)N(CC(C)(C)C)c2nc(C)ccc2F)c(N2CCC(COc3cc(C(CC(=O)O)C4CC4)ccn3)CC2)c1 (stereo not drawn) | 97% |
| COc1ccc(C(=O)N(CC(C)(C)C)c2ncccn2)c(N2CCC(COc3cc(C(CC(=O)O)C4CC4)ccn3)CC2)c1 (stereo not drawn) | 98% |
| COc1ccc(C(=O)N(c2ccccn2)C(C)C(C)C)c(N2CCC(COc3cc(C(CC(=O)O)C4CC4)ccn3)CC2)c1 (stereo not drawn) | 95% |
| Cc1cccc(N(CC(C)(C)C)C(=O)c2ccc(Cl)cc2N2CCC(COc3cc(C(CC(=O)O)C4CC4)ccn3)CC2)n1 (stereo not drawn) | 94% |
| COc1cc(N2CCC(COc3cc(C(CC(=O)O)C4CC4)ccn3)CC2)c(C(=O)N(CC(C)(C)C)c2cc(C)cc(C)n2)cn1 (stereo not drawn) | 103% |

====

Catalogue of compounds with associated activation at 1 µM
- test_system: human GPR40 (Homo sapiens, UniProt O14842)
- Construct: expressed in transfected cells
- protocol_notes: Evaluation of human GPR40 agonist activity with increase in intracellular Ca2+ concentration as an index (FLIPR)
- Type: cell-based
- recorded_conditions: test compound 1 μM; CHO(dhfr−) cells stably expressing human GPR40; 100% = 10 μM compound of Example 153, 0% = DMSO

| compound | activation at 1 µM, % |
| --- | --- |
| COc1ccc(C(=O)N(c2ccccn2)C2CCC2)c(N2CCC(COc3cc(C(CC(=O)O)C4CC4)ccn3)CC2)c1 (stereo not shown) | 87 |
| COc1ccc(C(=O)N(CC2(C)CC2)c2ccccn2)c(N2CCC(COc3cc(C(CC(=O)O)C4CC4)ccn3)CC2)c1 (stereo not shown) | 98 |
| COc1ccc(C(=O)N(CC(C)(C)C)c2cccnn2)c(N2CCC(COc3cc(C(CC(=O)O)C4CC4)ccn3)CC2)c1 (stereo not shown) | 84 |
| COc1ccc(C(=O)N(CC(F)F)c2nccc(C)n2)c(N2CCC(COc3cc(C(CC(=O)O)C4CC4)ccn3)CC2)c1 (stereo not shown) | 97 |
